System: MCF7
Assay: Growth inhibition of human MCF7 cells by MTT assay
Assay type: functional
Parameter: GI50. Scope: all listed entries.
Number first, unit second: that is the form wanted.

Here is how some compounds turned out for GI50.
Structure String	GI50
COc1cc2oc(-c3ccccc3)cc(=O)c2c(OC)c1OC	91.4 µM
COc1ccccc1C(=O)Nc1cccc(-c2cc(=O)c3c(O)c(OC)c(OC)cc3o2)c1	1.83 µM

Query COc1cc2oc(-c3cccc(NC(=O)c4ccc(C(F)(F)F)cc4)c3)cc(=O)c2c(OC)c1OC yields GI50 of 10.6 µM

Briefly, GI50 measured for COc1cccc(C(=O)Nc2cccc(-c3cc(=O)c4c(O)c(OC)c(OC)cc4o3)c2)c1 : 35.6 µM

Measured GI50 of COc1cc2oc(-c3cccc(NC(=O)c4ccc5c(c4)OCO5)c3)cc(=O)c2c(OC)c1OC : 9.12 µM

Just so you know, measured GI50 for COc1cc2oc(-c3cccc(NC(=O)c4cccc(Br)c4)c3)cc(=O)c2c(OC)c1OC came out at 6.34 µM

// field: GI50; key: COc1cc2oc(-c3cccc(NC(=O)c4ccc(C)cc4)c3)cc(=O)c2c(OC)c1OC ; value = 8.32 µM

Measured GI50, COc1cc2oc(-c3cccc(NC(=O)c4ccc(Br)cc4)c3)cc(=O)c2c(OC)c1OC : 9.65 µM

Lab note: measured GI50 of COc1cc2oc(-c3cccc(NC(=O)c4ccccc4)c3)cc(=O)c2c(OC)c1OC was 12.1 µM

Reported GI50 of COc1cc2oc(-c3cccc(NC(=O)c4ccc5c(c4)OCO5)c3)cc(=O)c2c(O)c1OC : 8.47 µM

----------
Entries and their measured inhibition of growth at 10 µM follow.
System: MCF7
Assay: Growth inhibition of human MCF7 cells at 10 uM by MTT assay relative to control
Assay type: functional
Conditions: read-out: GI

Before answering, review these 4 worked examples.
Structure String	inhibition of growth at 10 µM
COc1ccc(C(=O)Nc2ccc(-c3cc(=O)c4c(O)c(OC)c(OC)cc4o3)cc2)cc1	< 50%
COc1cc2oc(-c3cccc(NC(=O)c4ccc(Br)cc4)c3)cc(=O)c2c(OC)c1OC	> 50%
COc1cc2oc(-c3cccc(NC(=O)c4cccc(Br)c4)c3)cc(=O)c2c(O)c1OC	> 50%
COc1cccc(C(=O)Nc2ccc(-c3cc(=O)c4c(O)c(OC)c(OC)cc4o3)cc2)c1	< 50%

API: the following record is the query input.
Value of inhibition of growth at 10 µM reported for the compound COc1cc2oc(-c3cccc(NC(=O)c4ccc(C#N)cc4)c3)cc(=O)c2c(OC)c1OC is > 50%

----------
Test system: MCF7
Experiment: Growth inhibition of human MCF7 cells by MTT assay
Format: functional
Measurement Name: GI50 (µM)
All answers are understood in µM, so give the number only.

Structure String	Unit Of Measure	GI50
COc1cccc(C(=O)Nc2cccc(-c3cc(=O)c4c(OC)c(OC)c(OC)cc4o3)c2)c1	µM	7.67
COc1cc2oc(-c3cccc(NC(=O)c4ccc([N+](=O)[O-])cc4)c3)cc(=O)c2c(OC)c1OC	µM	20.1
COc1cc2oc(-c3cccc(NC(=O)c4ccc(Cl)cc4)c3)cc(=O)c2c(OC)c1OC	µM	8.78
COc1cc2oc(-c3cccc(NC(=O)c4cccc(Br)c4)c3)cc(=O)c2c(O)c1OC	µM	6.94
COC(=O)c1ccc(C(=O)Nc2cccc(-c3cc(=O)c4c(OC)c(OC)c(OC)cc4o3)c2)cc1	µM	30.3

The recorded GI50 for COc1ccc(C(=O)Nc2cccc(-c3cc(=O)c4c(O)c(OC)c(OC)cc4o3)c2)cc1 is 2.05

Looking up COc1cc2oc(-c3cccc(NC(=O)c4ccc(C#N)cc4)c3)cc(=O)c2c(OC)c1OC , I see its GI50 listed as 12.7

The recorded GI50 for entry COc1cc2oc(-c3cccc(NC(=O)c4cccc(C#N)c4)c3)cc(=O)c2c(OC)c1OC equals 41.7

Looking up COc1ccc(C(=O)Nc2cccc(-c3cc(=O)c4c(OC)c(OC)c(OC)cc4o3)c2)cc1 , I see its GI50 listed as 6.87

----------
System: MCF7
Assay: Growth inhibition of human MCF7 cells by MTT assay
Format: functional
Measurement Name: GI50 (µM)
Output spec: scalar in µM, unitless text.

Structure String	Unit Of Measure	Observed Value
COc1cc2oc(-c3cccc(NC(=O)c4ccc(F)cc4)c3)cc(=O)c2c(OC)c1OC	µM	14.7
COc1cc2oc(-c3cccc(NC(=O)c4ccccc4Br)c3)cc(=O)c2c(OC)c1OC	µM	55

Now look at this one.
Data point: COc1ccccc1C(=O)Nc1cccc(-c2cc(=O)c3c(OC)c(OC)c(OC)cc3o2)c1 ; GI50 = 15.3

----------
inhibition of growth at 10 µM: recorded values
Test system: MCF7
Assay: Growth inhibition of human MCF7 cells at 10 uM by MTT assay relative to control
Assay type: functional
Settings: read-out: GI

Structure String	Measured Target	inhibition of growth at 10 µM
COc1cc2oc(-c3ccc(NC(=O)c4ccccc4Br)cc3)cc(=O)c2c(O)c1OC	MCF7	< 50%
COc1cc2oc(-c3ccc(NC(=O)c4ccc(C(F)(F)F)cc4)cc3)cc(=O)c2c(O)c1OC	MCF7	< 50%
COc1cc2oc(-c3cccc(NC(=O)c4ccccc4)c3)cc(=O)c2c(OC)c1OC	MCF7	> 50%
COc1ccc(C(=O)Nc2cccc(-c3cc(=O)c4c(OC)c(OC)c(OC)cc4o3)c2)cc1	MCF7	> 50%
COc1cc2oc(-c3cccc(NC(=O)c4cccc(Br)c4)c3)cc(=O)c2c(OC)c1OC	MCF7	> 50%

Per the records, this compound ( COc1cc2oc(-c3ccc(NC(=O)c4ccc(Cl)cc4)cc3)cc(=O)c2c(O)c1OC ) has inhibition of growth at 10 µM equal to < 50%

For COc1cc2oc(-c3ccc(NC(=O)c4ccccc4)cc3)cc(=O)c2c(O)c1OC the compound record lists inhibition of growth at 10 µM as < 50%

// recorded inhibition of growth at 10 µM for COc1ccccc1C(=O)Nc1cccc(-c2cc(=O)c3c(OC)c(OC)c(OC)cc3o2)c1 : > 50%

----------
inhibition of growth at 10 µM values, listed per item
System: MCF7
Assay: Growth inhibition of human MCF7 cells at 10 uM by MTT assay relative to control
Format: functional
Conditions: read-out: GI

Completed entries (count: 4):
Structure String	Observed Value
COc1cc2oc(-c3cccc(NC(=O)c4ccc(C)cc4)c3)cc(=O)c2c(OC)c1OC	> 50%
COc1cc2oc(-c3cccc(NC(=O)c4ccc(Cl)cc4)c3)cc(=O)c2c(OC)c1OC	> 50%
COc1cccc(C(=O)Nc2cccc(-c3cc(=O)c4c(OC)c(OC)c(OC)cc4o3)c2)c1	> 50%
COc1cc2oc(-c3cccc(NC(=O)c4ccc([N+](=O)[O-])cc4)c3)cc(=O)c2c(OC)c1OC	> 50%

// COc1cc2oc(-c3cccc(NC(=O)c4ccc5c(c4)OCO5)c3)cc(=O)c2c(OC)c1OC : inhibition of growth at 10 µM value = > 50%

The value of inhibition of growth at 10 µM measured for the compound COc1cc2oc(-c3ccc(NC(=O)c4ccc5c(c4)OCO5)cc3)cc(=O)c2c(O)c1OC turned out to be < 50%
